# experimental.system: human TGF-βRII on cells (SBE-bla HEK 293T cells; A549 cells) (human, UniProt P37173 23-567)
# Sequence (P37173 23-567): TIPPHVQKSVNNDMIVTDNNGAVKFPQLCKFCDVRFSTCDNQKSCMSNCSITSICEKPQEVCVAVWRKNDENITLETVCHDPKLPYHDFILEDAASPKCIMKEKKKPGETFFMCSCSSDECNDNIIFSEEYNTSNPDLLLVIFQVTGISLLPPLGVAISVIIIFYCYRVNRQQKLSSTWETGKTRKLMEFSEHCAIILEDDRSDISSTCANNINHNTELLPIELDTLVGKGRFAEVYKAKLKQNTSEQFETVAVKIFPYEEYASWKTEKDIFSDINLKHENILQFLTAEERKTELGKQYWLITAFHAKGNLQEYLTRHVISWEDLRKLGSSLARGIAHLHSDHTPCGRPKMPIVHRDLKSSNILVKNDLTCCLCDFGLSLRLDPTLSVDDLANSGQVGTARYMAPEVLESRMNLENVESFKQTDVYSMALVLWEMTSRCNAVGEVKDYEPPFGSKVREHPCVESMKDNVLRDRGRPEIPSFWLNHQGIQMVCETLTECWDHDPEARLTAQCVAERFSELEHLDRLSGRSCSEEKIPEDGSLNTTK
# assay.summary: cell-based or functional assay
value.kind: Mean IC50 (nM), SBE-bla HEK 293T Cell Sensor assay (h2)

>>> endpoint_value("DOM23h-439-20 (VHH, human VH dAb, error-prone matured; expressed from pDOM13, tag not described) VHH: EVQLLESGGGLVQPGGSLRLSCAASGFTFGTEQMWWVRQAPGKGLEFVSRIDSPGGRTYYADSVKGRFTISRDNSKNTLYLQMNSLRAEDTAVYYCAKRHAAGVSGTYFDYWGQGTLVTVSS")
48
>>> endpoint_value("DOM23h-439 (VHH) VHH: EVQLLESGGGLVQPGGSLRLSCAASGFTFGTEQMWWVRQAPGKGLEWVSRIDSPGGRTYYADSVKGRFTISRDNSKNTLYLQMNSLRAEDTAVYYCAKRHAAGVSGTYFDYWGQGTLVTVSS")
3570
>>> endpoint_value("DOM23h-843-13 (VHH, human VH dAb, error-prone matured; expressed from pDOM13, tag not described) VHH: EVQLLESGGGLVQPGGSLRLSCAASGFTFDQDRMWWVRQAPGKGLEWVSAIESGGHRTYYADSVKGRFTISRDNSKNTLYLQMNSLRAEDTAVYYCANQNKSGRSGFDYWGQGTLVTVSS")
540
>>> endpoint_value("DOM23h-843 (VHH, human VH domain antibody (dAb), naive lead; parent of DOM23h-843-13; not shown: C-terminal FLAG tag from vector pDOM10) VHH: EVQLLESGGGLVQPGGSLRLSCAASGFTFDQDRMWWVRQAPGKGLEWVSAIESGGHRTYYADSVKGRFTISRDNSKNTLYLQMNSLRAEDTAVYYCAKQNESGRSGFDYWGQGTLVTVSS")
1950
>>> endpoint_value("DOM23h-855-21 (VHH, human VH dAb, error-prone matured; expressed from pDOM13, tag not described) VHH: EVQLLESGGGLVQPGGSLRLSCAASGFTFENTSMGWVRQAPGKGLEWVSRIDPKGSHTYYTDSVKGRFTISRDNSKNTLYLQMNSLRAEDTAVYYCAKQRELGKSYFDYWGQGTLVTVSS")
18600
